Test system: SW1463 (Colorectal Carcinoma);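 also: after 72 h of two-drug dosing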
assayOverview: Bliss excess, mean over the matrix (fraction); higher = more synergy

{"columns": ["compound", "measurementTarget", "Bliss excess"],
 "data": [
  ["CN(CCO)CC[C@H](CSc1ccccc1)Nc1ccc(S(=O)(=O)NC(=O)c2ccc(N3CCC([C@@H](O)c4ccccc4-c4ccc(Cl)cc4)CC3)cc2)cc1S(=O)(=O)C(F)(F)F [AZD4320] + Cn1cnc2c(F)c(Nc3ccc(Br)cc3Cl)c(C(=O)NOCCO)cc21 [Selumetinib] (first compound max 1 µM, 7x7, partner max 3 µM)", "SW1463 (Colorectal Carcinoma)", 0.0106],
  ["C[C@@H]1COCCN1c1cc(C2([S@](C)(=N)=O)CC2)nc(-c2ccnc3[nH]ccc23)n1 [AZD6738] + C1CC(C1)(C(=O)[O-])C(=O)[O-].N.N.[Pt+2] [Carboplatin] (first compound max 10 µM, 7x7, partner max 10 µM)", "SW1463 (Colorectal Carcinoma)", -0.0446],
  ["Cc1c2c(nn1C)CSCc1cc(n(C)n1)CSc1cc(c3ccccc3c1)OCCCc1c(C(=O)O)n(C)c3c-2c(Cl)ccc13 [AZD5991] + CC1(C)CCC(CN2CCN(c3ccc(C(=O)NS(=O)(=O)c4ccc(NCC5CCOCC5)c([N+](=O)[O-])c4)c(Oc4cnc5[nH]ccc5c4)c3)CC2)=C(c2ccc(Cl)cc2)C1 [Venetoclax] (first compound max 1 µM, 7x7, partner max 1 µM)", "SW1463 (Colorectal Carcinoma)", -0.0589]
]}

###

Tested on: HT-144 (Melanoma)
assayOverview: combination Emax (second highest fraction inhibited in the dose matrix, 72 h); higher = more inhibition; extreme values may be limits of the assay
Entries and their combination Emax values follow.
quantityMeasured: combination Emax

{"columns": ["compound", "measurementTarget", "recordedValue"],
 "data": [
  ["CC(=O)Nc1cccc(-n2c(=O)n(C3CC3)c(=O)c3c(Nc4ccc(I)cc4F)n(C)c(=O)c(C)c32)c1 [Trametinib] + Cc1nc(-c2cn3c(n2)-c2ccc(-c4cnn(C(C)(C)C(N)=O)c4)cc2OCC3)n(C(C)C)n1 [Taselisib] (first compound max 1 µM, 7x7, partner max 10 µM)", "HT-144 (Melanoma)", 1],
  ["C[C@@H](c1ccc2nccn2c1)n1nnc2ncc(-c3cnn(C)c3)nc21 [Savolitinib] + CC1(C)CCC(CN2CCN(c3ccc(C(=O)NS(=O)(=O)c4ccc(NCC5CCOCC5)c([N+](=O)[O-])c4)c(Oc4cnc5[nH]ccc5c4)c3)CC2)=C(c2ccc(Cl)cc2)C1 [Venetoclax] (first compound max 1 µM, 7x7, partner max 1 µM)", "HT-144 (Melanoma)", 0.117],
  ["CN(C)CCCOc1ccc(-c2ccc3ncc4c(c3c2)n(C2CCOCC2)c(=O)n4C)cn1 [AZD0156] + C=CCn1c(=O)c2cnc(Nc3ccc(N4CCN(C)CC4)cc3)nc2n1-c1cccc(C(C)(C)O)n1 [AZD1775] (first compound max 1 µM, partner max 1 µM)", "HT-144 (Melanoma)", 0.587],
  ["CN(CCO)CC[C@H](CSc1ccccc1)Nc1ccc(S(=O)(=O)NC(=O)c2ccc(N3CCC([C@@H](O)c4ccccc4-c4ccc(Cl)cc4)CC3)cc2)cc1S(=O)(=O)C(F)(F)F [AZD4320] + Cn1cnc2c(F)c(Nc3ccc(Br)cc3Cl)c(C(=O)NOCCO)cc21 [Selumetinib] (first compound max 1 µM, 7x7, partner max 3 µM)", "HT-144 (Melanoma)", 0.834],
  ["CN(C)CCCOc1ccc(-c2ccc3ncc4c(c3c2)n(C2CCOCC2)c(=O)n4C)cn1 [AZD0156] + O=C(c1cc(Cc2n[nH]c(=O)c3ccccc23)ccc1F)N1CCN(C(=O)C2CC2)CC1 [Olaparib] (first compound max 3 µM, partner max 3 µM)", "HT-144 (Melanoma)", 0.381],
  ["CC1(C)CCC(CN2CCN(c3ccc(C(=O)NS(=O)(=O)c4ccc(NCC5CCOCC5)c([N+](=O)[O-])c4)c(Oc4cnc5[nH]ccc5c4)c3)CC2)=C(c2ccc(Cl)cc2)C1 [Venetoclax] + COc1cc(Nc2ncc3c(n2)-c2ccc(Cl)cc2C(c2c(F)cccc2OC)=NC3)ccc1C(=O)O [Alisertib] (first compound max 1 µM, 7x7, partner max 10 µM)", "HT-144 (Melanoma)", 0.358],
  ["CN(C)CCCOc1ccc(-c2ccc3ncc4c(c3c2)n(C2CCOCC2)c(=O)n4C)cn1 [AZD0156] + CCN(CCO)CCCOc1ccc2c(Nc3cc(CC(=O)Nc4cccc(F)c4)[nH]n3)ncnc2c1 [AZD2811] (first compound max 1 µM, 7x7, partner max 1 µM)", "HT-144 (Melanoma)", 0.232]
]}
